Assay: protein stability index of a GFP-peptide fusion (yeast GPS) (PSI 1-4); higher = more stable; sorted into four equal gates, so the index is relative within each strain
Details: pdr5∆
PROPERTY_MEASURED: protein stability index
# output: bare number, no unit

In [3]: df
Out[3]:
             entry_sequence  result_value
0  APAVELHGNAKKAAEEA [FAS2]          3.11

# get_value(readout='protein stability index', item= VIPSYSKWFNLEKIHSI [SWI3] )
1.6

# get_value(readout='protein stability index', item= QNSANNNSDDEDVDDEE [IRR1] )
3.22

# get_value(readout='protein stability index', item= ITNTDETITTKRVPNPN [SWP82] )
3.25

* * *

Reported protein stability index values are given for each entry in this list.
Assay: protein stability index of a GFP-peptide fusion (yeast GPS) (PSI 1-4); higher = more stable; sorted into four equal gates, so the index is relative within each strain
Details: ubr1∆
# output: bare number, no unit

A selection of reference data follows.
>>> df
               entry_sequence  result_value
0    IPPPMPKNQQYRAFGSI [MED7]          2.04
1    QGAKTYLERTLDTFIKI [PRE5]          3.21
2  AVGNLGNAIEVTEDGSI [RPL22B]          1.27
3   LQEKNSGNLPLNELSAK [RPN13]          3.17
4    LDKIYTRPISSQVLDLA [SMC2]          1.27
5    EDILQGIFNLLNTLFNP [NUT1]           2.3

# get_value(readout='protein stability index', item= PKELGGLGMISASHILI [PRP8] )
2.41

# get_value(readout='protein stability index', item= RPSFQNNRISNANEISA [SWP82] )
2.47

# get_value(readout='protein stability index', item= AAQAQAQAQAQAQAQAQ [GAL11] )
2.95

* * *

Assay: protein stability index of a GFP-peptide fusion (yeast GPS) (PSI 1-4); higher = more stable; sorted into four equal gates, so the index is relative within each strain
Settings: pdr5∆
PROPERTY_MEASURED: protein stability index
# output: bare number, no unit

             entry_sequence  result_value
0  TGNFIIPSGNVWNYTFM [PRP8]          2.95

# get_value(readout='protein stability index', item= LISSSQDMQLKIWSVKD [RPN14] )
2.73

# get_value(readout='protein stability index', item= VHVIHFQHADNSSMRYG [AAR2] )
2.7

# get_value(readout='protein stability index', item= VDNVTLESYKTQAKKLY [SRP72] )
2.87

# get_value(readout='protein stability index', item= KQLEKRDYQRINKNSKI [POP4] )
2.4

# get_value(readout='protein stability index', item= EEVMRIALMGQDNKKIY [ESC2] )
2.72

# get_value(readout='protein stability index', item= ALTDFERFQVMVLRKQK [RPL14A] )
1.97

# get_value(readout='protein stability index', item= MGPLYQNFAEFMTKLLE [IRR1] )
1.82

# get_value(readout='protein stability index', item= IFLQQFLQELLKKVQQQ [SWI1] )
2.37

# get_value(readout='protein stability index', item= NANIFSSVKCFGPIKVE [FAS1] )
1.63
